Field: 稀释10倍RLU. Provide a value for each of the binders that follow.
System Name: Scl-70抗原 (人DNA拓扑异构酶I的C末端片段的70kD分子量蛋白) (human) (UniProt P11387)
Measurement Protocol: chemiluminescence immunoassay on Scl-70-coated magnetic microspheres, ABEI-anti-human IgG; CHO supernatant diluted 10-fold
State just the number; it will be interpreted in RLU.

Measured 稀释10倍RLU, 抗体1 (实施例11; 2D6抗体) (antibody, human IgG1, kappa, V domains shown) VH: EIQLVQSGSEVVRTGTSVKLSCKASGYRFTSYWMHWVKQRPGQGLEWIGNINPGDGRTNYDENFKNKATLTVDPSSNTAYMQLNSLTSEDSAVYYCTRDGNYGIFDYWGRGTSVTVSS VL: NIVMTQSPSSLVVSAGEKVTLSCKSSQSLLYSSNQKNYLAWFQQKPGQSPKLLIYWASTRESGVPDRFTGSGSRTDFTLTISSVQAEDMAVYYCHQYIYLWSFGGGSKLEIER : 1.01e+06

Measured 稀释10倍RLU, 抗体6 (实施例16) (antibody, human IgG1, kappa, V domains shown) VH: EVKLVESGGGLVQPGGSRKLSCAASGFTFSSYWMHWVRQAPEKGLEWVANINPGDGRTNYDENFKNRFTISRDNPENTLFLQMTSLTSEDTAIYYCARRAAYGNYDWYFDVWGAGTTVTVSS VL: NIVMTQSPSSLVVSAGEKVTLSCKSSQSLLYSSNQKNYLAWFQQKPGQSPKLLIYWASTRESGVPDRFTGSGSRTDFTLTISSVQAEDMAVYYCHQYIYLWSFGGGSKLEIER : 801000

Measured 稀释10倍RLU, 抗体5 (实施例15) (antibody, human IgG1, kappa, V domains shown) VH: EIQLVQSGSEVVRTGTSVKLSCKASGYRFTSYWMHWVKQRPGQGLEWIGNINPGDGRTNYDENFKNKATLTVDPSSNTAYMQLNSLTSEDSAVYYCTRDGNYGIFDYWGRGTSVTVSS VL: DIELTQSPSSLVVSAGEKVTLSCKSSQSLLYSSNQKNYLAWFQQKPGQSPKLLIYWASTRGSGVPDRFTGSGSRTDFTLTISSVQAEDMAVYYCHQYIYLWSFGGGTKLEIKR : 1.31e+06

Measured 稀释10倍RLU, 抗体4 (实施例14) (antibody, human IgG1, kappa, V domains shown) VH: EVKLVESGGGLVQPGGSRKLSCAASGFTFSSYWMHWVRQAPEKGLEWVAYISSGGITIYYADTVKGRFTISRDNPENTLFLQMTSLTSEDTAIYYCARRAAYGNYDWYFDVWGAGTTVTVSS VL: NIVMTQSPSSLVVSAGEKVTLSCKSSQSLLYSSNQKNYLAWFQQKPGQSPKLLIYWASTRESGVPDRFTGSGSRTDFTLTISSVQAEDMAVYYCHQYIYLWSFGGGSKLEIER : 1.74e+06
